Give measured pIC50 for each item. Keep answers brief.
Target: human neutrophil elastase (HNE) (Homo sapiens, UniProt P08246)
Sequence (P08246 30-267): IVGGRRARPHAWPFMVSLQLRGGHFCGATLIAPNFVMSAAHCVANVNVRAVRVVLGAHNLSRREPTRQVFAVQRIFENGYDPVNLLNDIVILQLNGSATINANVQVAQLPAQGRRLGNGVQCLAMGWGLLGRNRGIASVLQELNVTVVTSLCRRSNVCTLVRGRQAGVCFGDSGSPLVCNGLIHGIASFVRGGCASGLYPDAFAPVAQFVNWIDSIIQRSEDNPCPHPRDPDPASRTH
Test: Potency (IC50 determination) against human neutrophil elastase, chromogenic substrate N-methoxysuccinyl-ala-ala-pro-val-pNA, 405 nm
Conditions: pH 7.7, 7 min incubation at room temperature
The meaning of pIC50 here: minus log10 of the concentration in molar units.

Data request, read-out pIC50, for CCC(C(=O)Oc1ccc([S+]([O-])C(C)(C)C(=O)O)cc1)c1ccc(C(CC)C(=O)Oc2ccc([S+]([O-])C(C)(C)C(=O)O)cc2)cc1 (stereo not drawn) [Compound 8]
7.13

Data request, read-out pIC50, for CCC(C(=O)Oc1ccc(S(C)(=O)=O)cc1)c1ccc(C(CC)C(=O)Oc2ccc(S(C)(=O)=O)cc2)cc1 (stereo not drawn) [Compound 3]
7.21

Data request, read-out pIC50, for CC(C)(CSc1ccc(OC(=O)C(C)(C)c2ccc(C(C)(C)C(=O)Oc3ccc(SCC(C)(C)C(=O)O)cc3)cc2)cc1)C(=O)O [Compound 10]
6.60

----------
Biological target: human neutrophil elastase (HNE) (Homo sapiens, UniProt P08246)
Sequence (P08246 30-267): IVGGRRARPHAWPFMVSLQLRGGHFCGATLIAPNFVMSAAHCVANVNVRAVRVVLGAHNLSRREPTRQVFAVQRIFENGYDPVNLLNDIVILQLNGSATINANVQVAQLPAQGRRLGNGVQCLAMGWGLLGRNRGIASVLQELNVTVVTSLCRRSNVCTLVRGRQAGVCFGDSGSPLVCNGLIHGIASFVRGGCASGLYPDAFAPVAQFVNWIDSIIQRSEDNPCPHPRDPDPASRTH
Assay: Potency (IC50 determination) against human neutrophil elastase, chromogenic substrate N-methoxysuccinyl-ala-ala-pro-val-pNA, 405 nm
Details: pH 7.7, 7 min incubation at room temperature
EXPERIMENTAL READOUT: pIC50
The meaning of pIC50 here: minus log10 of the concentration in molar units.

Data request, read-out pIC50, for CCC(C(=O)Oc1ccc(S(=O)(=O)CC(C)(C)C(=O)O)cc1)c1ccc(C(CC)C(=O)Oc2ccc(S(=O)(=O)CC(C)(C)C(=O)O)cc2)cc1 (stereo not drawn)
7.55

Data request, read-out pIC50, for CC(C)(C[S+]([O-])c1ccc(OC(=O)C(C)(C)c2ccc(C(C)(C)C(=O)Oc3ccc([S+]([O-])CC(C)(C)C(=O)O)cc3)cc2)cc1)C(=O)O (stereo not drawn)
7.64

Data request, read-out pIC50, for CC(C)(C(=O)Oc1ccc(S(=O)(=O)CC(=O)O)cc1)c1ccc(C(C)(C)C(=O)Oc2ccc(S(=O)(=O)CC(=O)O)cc2)cc1
7.11

Data request, read-out pIC50, for CCC(C(=O)Oc1ccnc(SC)n1)c1ccc(C(CC)C(=O)Oc2ccnc(SC)n2)cc1 (stereo not drawn)
7.19

Data request, read-out pIC50, for CC(C)(C(=O)Oc1ccc(SCC(=O)O)cc1)c1ccc(C(C)(C)C(=O)Oc2ccc(SCC(=O)O)cc2)cc1
6.08

Data request, read-out pIC50, for CCC(C(=O)Oc1ccc(S(=O)(=O)C(C)(C)C(=O)O)cc1)c1ccc(C(CC)C(=O)Oc2ccc(S(=O)(=O)C(C)(C)C(=O)O)cc2)cc1 (stereo not drawn)
7.43
